// reported protein stability index per item
B1: WEE1 (parent)
chain: INPFTPDSLLLHSSGQCRRRKRTY

variants of: B1; test: protein stability index of a GFP-peptide fusion (GPS, HEK-293T) (PSI 1-6); higher = more stable; details: c terminus: a fixed tail appended;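 note: lentivirally expressed fusions sorted by FACS into six bins by GFP to DsRed ratio, PSI derived from sequencing read proportions per bin multiplied by bin number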
value type: protein stability index

mut	value type	measured
R19G	protein stability index	3.34
P6D	protein stability index	3.87
Q16S	protein stability index	3.61
P6G	protein stability index	3.58
C17E	protein stability index	4.09
S14I	protein stability index	3.16
C17A	protein stability index	3.64
H12I	protein stability index	3.6
G15A	protein stability index	3.71
R19F	protein stability index	2.62
L9D	protein stability index	4.2

Origin of measurements: the supplement of paper PMC10567573
